Reference for the values: patent US20240384350A1

target: EGFR Ex19del L718Q (Homo sapiens, UniProt P00533, DEL746-750/L718Q); construct: expressed in transfected cells; host or cells: Ba/F3; assay: Ba/F3 drug screening, Cell Titer Glo, IC50 Mut/WT; format: cell-based; conditions: PACC; Ex19del L718Q; Ba/F3; 72 hours
measured parameter: ratio of IC50 for cells with mutant EGFR to IC50 for cells with wildtype EGFR (Mut/WT)

compound smiles: COc1cc2ncnc(Nc3cccc(Cl)c3F)c2cc1OC(=O)N1CCN(C)C[C@H]1C
recorded result: 4.812
--
compound smiles: CNC(=O)CN1CCC(Oc2cc3c(Nc4cccc(Cl)c4F)ncnc3cc2OC)CC1
recorded result: 0.7162

I. COc1cc2ncnc(Nc3ccc(F)c(Cl)c3)c2cc1NC(=O)/C=C/CN1CCCCC1
II. CN(C)C/C=C/C(=O)Nc1cc2c(Nc3ccc(Cl)c(Br)c3)ncnc2cn1
Exercise: Name the one with the greater ratio of IC50 for cells with mutant EGFR to IC50 for cells with wildtype EGFR (Mut/WT) value, either I or II as given. Respond using the label that marks the chosen record.
Solution: II
(II: 0.09651, I: 0.03226)

----------
biological target: EGFR R776C (Homo sapiens, UniProt P00533, R776C); construct: host or cells: Ba/F3; experiment: Ba/F3 drug screening, Cell Titer Glo, IC50 Mut/WT; type: cell-based; details: PACC; R776C; Ba/F3; 72 hours
measured parameter: ratio of IC50 for cells with mutant EGFR to IC50 for cells with wildtype EGFR (Mut/WT)

See these solved cases before continuing.
compound smiles: CNC(=O)CN1CCC(Oc2cc3c(Nc4cccc(Cl)c4F)ncnc3cc2OC)CC1
target under test: EGFR R776C (Homo sapiens, UniProt P00533, R776C)
recorded result: 0.02012

compound smiles: COc1cc2ncnc(Nc3cccc(Cl)c3F)c2cc1OC(=O)N1CCN(C)C[C@H]1C
target under test: EGFR R776C (Homo sapiens, UniProt P00533, R776C)
recorded result: 0.1522

a. CN(C)C/C=C/C(=O)Nc1cc2c(Nc3ccc(Cl)c(Br)c3)ncnc2cn1
b. COc1cc2ncnc(Nc3ccc(F)c(Cl)c3)c2cc1NC(=O)/C=C/CN1CCCCC1
Exercise: When their ratio of IC50 for cells with mutant EGFR to IC50 for cells with wildtype EGFR (Mut/WT) values are compared, which is larger, a or b ? Which one? Tell me its label.
Solution: b

----------
biological target: EGFR Ex19del/T790M/G724S (Homo sapiens, UniProt P00533, DEL746-750/G724S/T790M); construct: expressed in transfected cells; host or cells: Ba/F3; test: Ba/F3 drug screening, Cell Titer Glo, IC50 Mut/WT; assay type: cell-based; details: T790M-like-3S, 72 hours
measured parameter: ratio of IC50 for cells with mutant EGFR to IC50 for cells with wildtype EGFR (Mut/WT)

Some compounds with known ratio of IC50 for cells with mutant EGFR to IC50 for cells with wildtype EGFR (Mut/WT) results, for comparison:
compound smiles: C=CC(=O)N1CC[C@@H](Oc2nc(Nc3ccc(N4CCC(N5CCN(C)CC5)CC4)cc3)c(C(N)=O)nc2CC)C1
recorded result: 0.02849
//
compound smiles: COc1cc2ncnc(Nc3cccc(Cl)c3F)c2cc1OC(=O)N1CCN(C)C[C@H]1C
recorded result: 4.645
//
compound smiles: C=CC(=O)Nc1cccc(Oc2nc(Nc3ccc(N4CCN(C)CC4)cc3)nc3ccsc23)c1
recorded result: 0.005075
//
compound smiles: C=CC(=O)Nc1cc(Nc2nccc(-c3c[nH]c4ccccc34)n2)c(OC)cc1N(C)CCN(C)C
recorded result: 1.673
//
compound smiles: CN(C)C/C=C/C(=O)Nc1cc2c(Nc3ccc(Cl)c(Br)c3)ncnc2cn1
recorded result: 4.197

1. COc1cc2ncnc(Nc3ccc(F)c(Cl)c3)c2cc1NC(=O)/C=C/CN1CCCCC1
2. Cc1cc(C(=O)Nc2nc3cccc(Cl)c3n2[C@@H]2CCCCN(C(=O)/C=C/CN(C)C)C2)ccn1
Exercise: 1 or 2 : whose ratio of IC50 for cells with mutant EGFR to IC50 for cells with wildtype EGFR (Mut/WT) is greater? Write down the label of the entry you select.
Solution: 1
